Source of measurements: ChEMBL document CHEMBL1777672

- Test system: Candida albicans
- PROCEDURE TEXT: Antifungal activity against Candida albicans ATCC 90028 after 48 hrs by agar diffusion bioautography method
- Format: functional, organism-based
Calls of active or inactive are those of the source. No cut-off for these calls is given here.
PARAMETER MEASURED: Activity

Here's what some known entries look like.
Q. Any idea what Activity was measured for O=c1cc(-c2ccccc2-c2ccccc2-c2cc(=O)c3ccccc3o2)oc2ccccc12 ?
A. inactive

Q. Any idea what Activity was measured for O=C(/C=C/c1ccccc1-c1ccccc1/C=C/C(=O)c1ccc(OCc2ccccc2)cc1O)c1ccc(OCc2ccccc2)cc1O ?
A. inactive

Q. Any idea what Activity was measured for O=C1CC(c2ccc(OCc3ccccc3)c(-c3cc(C4CC(=O)c5c(O)cc(OCc6ccccc6)cc5O4)ccc3OCc3ccccc3)c2)Oc2cc(OCc3ccccc3)cc(O)c21 (configuration not stated) ?
A. Active

Q. Any idea what Activity was measured for O=C1CC(c2ccc(O)c(-c3cc(C4CC(=O)c5ccc(O)cc5O4)ccc3O)c2)Oc2cc(O)ccc21 (configuration not stated) ?
A. inactive

Q. Any idea what Activity was measured for O=C1CC(c2ccc(OCc3ccccc3)c(-c3cc(C4CC(=O)c5ccc(OCc6ccccc6)cc5O4)ccc3OCc3ccccc3)c2)Oc2cc(OCc3ccccc3)ccc21 (configuration not stated) ?
A. inactive

Next:
Q. Any idea what Activity was measured for O=c1c(-c2c(-c3ccccc3)oc3ccccc3c2=O)c(-c2ccccc2)oc2ccccc12 ?
A. inactive

Q. Any idea what Activity was measured for O=C(/C=C/c1ccc(O)c(-c2cc(/C=C/C(=O)c3c(O)cc(O)cc3O)ccc2O)c1)c1c(O)cc(O)cc1O ?
A. Active

* * *

- Test system: Candida parapsilosis
- PROCEDURE TEXT: Antifungal activity against Candida parapsilosis ATCC 22019 after 48 hrs by agar diffusion bioautography method
- Type: functional, organism-based
Active and inactive are the calls of the source. The calls are words filed in the database; no cut-off is given here.
Select the matching outcome among active, inactive

Here are 6 compounds together with their reported answers.
Q. Record request — test call for COc1cc(O)c(C(=O)/C=C/c2ccc(OC)c(-c3cc(/C=C/C(=O)c4c(O)cc(OC)cc4OC)ccc3OC)c2)c(OC)c1
A. inactive

Q. Record request — test call for C[C@@H]1[C@H](O)[C@@H](C)/C=C/C=C/C=C/C=C/C=C/C=C/C=C/[C@H](O[C@@H]2O[C@H](C)[C@@H](O)[C@H](N)[C@@H]2O)C[C@@H]2O[C@](O)(C[C@@H](O)C[C@@H](O)[C@H](O)CC[C@@H](O)C[C@@H](O)CC(=O)O[C@H]1C)C[C@H](O)[C@H]2C(=O)O
A. active

Q. Record request — test call for O=C1CC(c2ccc(O)c(-c3cc(C4CC(=O)c5ccc(O)cc5O4)ccc3O)c2)Oc2cc(O)ccc21 (centres undefined)
A. inactive

Q. Record request — test call for O=C1CC(c2ccccc2-c2ccccc2C2CC(=O)c3ccc(OCc4ccccc4)cc3O2)Oc2cc(OCc3ccccc3)ccc21 (centres undefined)
A. inactive

Q. Record request — test call for O=c1c(-c2c(-c3ccccc3)oc3ccccc3c2=O)c(-c2ccccc2)oc2ccccc12
A. active

Q. Record request — test call for O=C(/C=C/c1ccc(O)c(-c2cc(/C=C/C(=O)c3c(O)cc(O)cc3O)ccc2O)c1)c1c(O)cc(O)cc1O
A. inactive

Next:
Q. Record request — test call for O=C1CC(c2ccc(OCc3ccccc3)c(-c3cc(C4CC(=O)c5ccc(OCc6ccccc6)cc5O4)ccc3OCc3ccccc3)c2)Oc2cc(OCc3ccccc3)ccc21 (centres undefined)
A. inactive

Q. Record request — test call for O=c1c(O)c(-c2ccc(O)c(-c3cc(-c4oc5cc(O)cc(O)c5c(=O)c4O)ccc3O)c2)oc2cc(O)cc(O)c12
A. inactive

Q. Record request — test call for COc1cc(OC)c2c(=O)cc(-c3ccc(OC)c(-c4cc(-c5cc(=O)c6c(OC)cc(OC)cc6o5)ccc4OC)c3)oc2c1
A. inactive

Q. Record request — test call for O=c1cc(-c2ccccc2-c2ccccc2-c2cc(=O)c3ccccc3o2)oc2ccccc12
A. inactive

Q. Record request — test call for O=C1CC(c2ccccc2-c2ccccc2C2CC(=O)c3ccc(O)cc3O2)Oc2cc(O)ccc21 (centres undefined)
A. inactive

Q. Record request — test call for O=C(/C=C/c1ccc(OCc2ccccc2)c(-c2cc(/C=C/C(=O)c3c(O)cc(OCc4ccccc4)cc3OCc3ccccc3)ccc2OCc2ccccc2)c1)c1c(O)cc(OCc2ccccc2)cc1OCc1ccccc1
A. inactive

Q. Record request — test call for O=C(/C=C/c1ccccc1-c1ccccc1/C=C/C(=O)c1ccc(OCc2ccccc2)cc1O)c1ccc(OCc2ccccc2)cc1O
A. inactive

Q. Record request — test call for O=C1CC(c2ccc(OCc3ccccc3)c(-c3cc(C4CC(=O)c5c(O)cc(OCc6ccccc6)cc5O4)ccc3OCc3ccccc3)c2)Oc2cc(OCc3ccccc3)cc(O)c21 (centres undefined)
A. inactive
